Every entry's value here was drawn from patent US20260242478A1.

- Target System: T1, Anti-CD28 Fab (SEQ ID NOs: 696, 697)
- T1 construct: Biotinylated and captured on neutravidin coated plates in the phage ELISA
- T1 sequence (VH, as listed by the source, chain 1 of 2): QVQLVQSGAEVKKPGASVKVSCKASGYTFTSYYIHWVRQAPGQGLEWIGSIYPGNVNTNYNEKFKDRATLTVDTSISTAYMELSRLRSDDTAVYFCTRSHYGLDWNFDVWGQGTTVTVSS
- T1 sequence (VL, as listed by the source, chain 2 of 2): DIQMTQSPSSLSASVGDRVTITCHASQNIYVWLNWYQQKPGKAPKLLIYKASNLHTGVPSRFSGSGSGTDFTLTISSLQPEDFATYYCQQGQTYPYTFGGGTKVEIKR
- Test Method Notes: phage binding ELISA; biotinylated anti-CD28 Fab on neutravidin plate, clonal phage supernatant, anti-M13 HRP detection
Outcome Measure: Anti-CD28 Fab signal (phage binding ELISA)

| Binder | Measurement |
| --- | --- |
| YCMGHLPQYMEKCL (peptide, not shown: large carriers, Clonal phage supernatant of the Peptide-87 library) [Phage-662] | 2.08 |
| YCDGHAEQYMEKCL (peptide, not shown: large carriers, Clonal phage supernatant of the Peptide-87 library) [Phage-665] | 2.08 |
| YCEGHSMQHMAKCL (peptide, not shown: large carriers, Clonal phage supernatant of the Peptide-87 library) [Phage-667] | 2.07 |
| YCEGHSPEYMSHCF (peptide, not shown: large carriers, Clonal phage supernatant of the Peptide-87 library) [Phage-666] | 2.08 |
| YCDGHAQEFMSKCL (peptide, not shown: large carriers, Clonal phage supernatant of the Peptide-87 library) [Phage-668] | 2.07 |
| YCAGHSPEYMGKCM (peptide, not shown: large carriers, Clonal phage supernatant of the Peptide-87 library) [Phage-659] | 2.09 |
| YCEGHTAEYLQKCL (peptide, not shown: large carriers, Clonal phage supernatant of the Peptide-87 library) [Phage-658] | 2.09 |
| YCAGHLEIYMQKCL (peptide, not shown: large carriers, Clonal phage supernatant of the Peptide-87 library) [Phage-661] | 2.09 |
| YCEGHAPEHMAKCL (peptide, not shown: large carriers, Clonal phage supernatant of the Peptide-87 library) [Phage-664] | 2.08 |
| YCSGHLPEYMEKCL (peptide, not shown: large carriers, Clonal phage supernatant of the Peptide-87 library) [Phage-660] | 2.09 |
| YCAGHLPEYIDKCL (peptide, not shown: large carriers, Clonal phage supernatant of the Peptide-87 library) [Phage-669] | 2.07 |
| YCEGHSAEYMWKCL (peptide, not shown: large carriers, Clonal phage supernatant of the Peptide-87 library) [Phage-663] | 2.08 |
| YCAGHLPEHIGKCL (peptide, not shown: large carriers, Clonal phage supernatant of the Peptide-87 library) [Phage-657] | 2.09 |
